Provenance of the data: ChEMBL document CHEMBL1150608

System: LOX IMVI
Experiment: Cytotoxicity against human LOXIMVI cells by sulforhodamine B method
Type: functional
Settings: read-out: ED50 (the source's name)
reported.endpoint: EC50

C=C[C@@](C)(CCC1=C(C)[C@H](OO)C[C@H]2C(C)(C)CCC[C@]12C)O[C@@H]1O[C@@H](C)[C@@H](OC(C)=O)[C@H](O)[C@H]1O > 10 µg/mL
C=C[C@@](C)(CC[C@H]1C(C)=CC[C@H]2C(C)(C)CCC[C@]12C)O[C@@H]1O[C@@H](C)[C@H](O)[C@@H](O)[C@H]1OC(C)=O > 10 µg/mL
C=C[C@@](C)(CC[C@H]1C(C)=CC[C@H]2C(C)(C)CCC[C@]12C)O[C@@H]1O[C@@H](C)[C@H](OC(C)=O)[C@@H](O)[C@H]1O > 10 µg/mL
C=C[C@@](C)(CC[C@H]1C(C)=CC[C@H]2C(C)(C)CCC[C@]12C)O[C@@H]1O[C@@H](C)[C@H](O)[C@@H](OC(C)=O)[C@H]1O > 10 µg/mL
COc1cccc2c1C(=O)c1c(O)c3c(c(O)c1C2=O)C[C@@](O)(C(=O)CO)C[C@@H]3O[C@H]1C[C@H](N)[C@H](O)[C@H](C)O1 0.001 µg/mL

---

Tested on: SK-OV-3
Assay: Cytotoxicity against human SKOV3 cells by sulforhodamine B method
Type: functional
Details: read-out: ED50 (the source's name)
reported.endpoint: EC50

compound	reported.endpoint	result
C=C[C@@](C)(CC[C@H]1C(C)=CC[C@H]2C(C)(C)CCC[C@]12C)O[C@@H]1O[C@@H](C)[C@H](OC(C)=O)[C@@H](O)[C@H]1O	EC50	> 10 µg/mL
C=C[C@@](C)(CCC1=C(C)[C@H](OO)C[C@H]2C(C)(C)CCC[C@]12C)O[C@@H]1O[C@@H](C)[C@@H](OC(C)=O)[C@H](O)[C@H]1O	EC50	> 10 µg/mL
COc1cccc2c1C(=O)c1c(O)c3c(c(O)c1C2=O)C[C@@](O)(C(=O)CO)C[C@@H]3O[C@H]1C[C@H](N)[C@H](O)[C@H](C)O1 [DOXORUBICIN]	EC50	0.01 µg/mL
C=C[C@@](C)(CC[C@H]1C(C)=CC[C@H]2C(C)(C)CCC[C@]12C)O[C@@H]1O[C@@H](C)[C@H](O)[C@@H](O)[C@H]1OC(C)=O	EC50	> 10 µg/mL
C=C[C@@](C)(CC[C@H]1C(C)=CC[C@H]2C(C)(C)CCC[C@]12C)O[C@@H]1O[C@@H](C)[C@H](O)[C@@H](OC(C)=O)[C@H]1O	EC50	> 10 µg/mL

---

Reported EC50 values for the following molecules.
Tested on: SNB-19
Experiment: Cytotoxicity against human SNB19 cells by sulforhodamine B method
Type: functional
Details: read-out: ED50 (the source's name)

molecule	EC50
C=C[C@@](C)(CC[C@H]1C(C)=CC[C@H]2C(C)(C)CCC[C@]12C)O[C@@H]1O[C@@H](C)[C@H](O)[C@@H](OC(C)=O)[C@H]1O	> 10 µg/mL
C=C[C@@](C)(CC[C@H]1C(C)=CC[C@H]2C(C)(C)CCC[C@]12C)O[C@@H]1O[C@@H](C)[C@H](OC(C)=O)[C@@H](O)[C@H]1O	> 10 µg/mL
COc1cccc2c1C(=O)c1c(O)c3c(c(O)c1C2=O)C[C@@](O)(C(=O)CO)C[C@@H]3O[C@H]1C[C@H](N)[C@H](O)[C@H](C)O1 [DOXORUBICIN]	0.002 µg/mL
C=C[C@@](C)(CCC1=C(C)[C@H](OO)C[C@H]2C(C)(C)CCC[C@]12C)O[C@@H]1O[C@@H](C)[C@@H](OC(C)=O)[C@H](O)[C@H]1O	> 10 µg/mL
C=C[C@@](C)(CC[C@H]1C(C)=CC[C@H]2C(C)(C)CCC[C@]12C)O[C@@H]1O[C@@H](C)[C@H](O)[C@@H](O)[C@H]1OC(C)=O	> 10 µg/mL
